Molecular target: T1, recombinant rat MASP1 active protease (amino acids 302-704, C-terminal His Tag) (rat, UniProt Q8CHN8 302-704)
T1 sequence: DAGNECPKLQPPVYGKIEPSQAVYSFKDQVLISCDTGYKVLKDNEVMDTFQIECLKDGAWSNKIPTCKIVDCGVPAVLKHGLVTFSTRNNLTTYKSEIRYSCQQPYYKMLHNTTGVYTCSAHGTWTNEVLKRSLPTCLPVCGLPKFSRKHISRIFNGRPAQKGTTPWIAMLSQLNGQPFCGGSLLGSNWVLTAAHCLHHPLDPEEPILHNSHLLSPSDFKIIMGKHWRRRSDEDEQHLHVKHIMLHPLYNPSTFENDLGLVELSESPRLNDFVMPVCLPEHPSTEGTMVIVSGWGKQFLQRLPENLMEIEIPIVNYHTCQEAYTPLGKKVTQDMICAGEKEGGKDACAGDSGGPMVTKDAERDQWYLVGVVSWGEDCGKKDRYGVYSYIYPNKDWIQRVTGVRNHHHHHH
Assay: cell-based or functional assay
Bridge positions count the residues as written; N and C are the ends. Square brackets hold non-standard residues; d marks the D form. Ends that are not written are not given here. tBuAla = CC(C)(C)C[C@H](N)C(=O)O; NMeC = CN[C@@H](CS)C(=O)O
property measured: rat MASP1 IC50 (nM)
Expressed in nM, but write only the number.

Qu. Note down rat MASP1 IC50 recorded for KICSRS[tBuAla]PPI[NMeC]I-NH2 (disulfide 3-11; N-terminus assumed; SMILES CC[C@H](C)[C@H](NC(=O)[C@@H]1CSSC[C@H](NC(=O)[C@@H](NC(=O)[C@@H](N)CCCCN)[C@@H](C)CC)C(=O)N[C@@H](CO)C(=O)N[C@@H](CCCNC(=N)N)C(=O)N[C@@H](CO)C(=O)N[C@@H](CC(C)(C)C)C(=O)N2CCC[C@H]2C(=O)N2CCC[C@H]2C(=O)N[C@@H]([C@@H](C)CC)C(=O)N1C)C(N)=O) [Example 79: KIC+SRS-((tBu)A)-PPI-((N-Me)C)+I-NH2]
Ans. 85
